- System: IL-2 production in primary mouse CD3+ T cells
- ASSAY NOTES: Cytokine measurement: IL-2 production in mouse CD3+ T cells (ELISA)
- Format: cell-based
- APPLIED CONDITIONS: T-cell, 1 uM compound, plate bound anti-CD3, 40 hrs, read-out: IL-2 production Fold change (1 uM)
QUANTITY MEASURED: fold induction at 1 µM
When you answer, write just the number.

Input line: For the compound O=C1CCC(Nc2ccc(N3CCN(CCCN4CCN(c5cccc(-c6cnc7[nH]cc(C8CC8)c7c6Cl)c5)C(=O)C4)CC3)c(F)c2)C(=O)N1 (stereo not shown) [Example 79] , what fold induction at 1 µM is on record?
Output line: 2.6

Input line: For the compound O=C1CCC(N2C(=O)c3ccc(OCCC4CN(C(=O)N5CCN(c6cccc(-c7cnc8[nH]cc(C9CC9)c8c7Cl)c6)C(=O)C5)C4)cc3C2=O)C(=O)N1 (stereo not shown) [Example 95] , what fold induction at 1 µM is on record?
Output line: 1.8

Input line: For the compound O=C1CCC(N2C(=O)c3ccc(N4CCC(COC(=O)N5CCN(c6cccc(-c7cnc8[nH]cc(C9CC9)c8c7Cl)c6)C(=O)C5)CC4)cc3C2=O)C(=O)N1 (stereo not shown) [Example 88] , what fold induction at 1 µM is on record?
Output line: 2.3

Input line: For the compound O=C1CCC(c2ccc(C3CCN(CCCN4CCN(c5cccc(-c6cnc7[nH]cc(C8CC8)c7c6Cl)c5)C(=O)C4)CC3)cc2)C(=O)N1 (stereo not shown) [Example 73] , what fold induction at 1 µM is on record?
Output line: 2

---

- System: HPK1 p-SLP-76
- ASSAY NOTES: HPK1 p-SLP-76 inhibition assay in human PBMC (HTRF)
- Assay type: cell-based
- APPLIED CONDITIONS: 6 h compound, anti-CD3 stimulation 20 min
For each of the compounds below, state its IC50.

Input line: For the compound O=C1CCC(Nc2ccc(C3CCN(CCCS(=O)(=O)N4CCN(c5cccc(-c6cnc7[nH]cc(C8CC8)c7c6Cl)c5)C(=O)C4)CC3)cc2)C(=O)N1 (stereo not drawn) [Example 104] , what IC50 is on record?
Output line: ≤ 300 nM

Input line: For the compound CCc1c[nH]c2ncc(-c3cccc(N4CCN(CCCN5CCN(c6cc7c(cc6F)C(=O)N(C6CCC(=O)NC6=O)C7=O)CC5)CC4=O)c3)c(Cl)c12 (stereo not drawn) [Example 25] , what IC50 is on record?
Output line: 300 to 3000 nM

Input line: For the compound O=C1CCC(N2C(=O)c3ccc(N4CCN(CCCN5CCN(c6cccc(-c7cnc8[nH]cc(C9CC9)c8c7Cl)n6)C(=O)C5)CC4)cc3C2=O)C(=O)N1 (stereo not drawn) [Example 80] , what IC50 is on record?
Output line: ≤ 300 nM

Input line: For the compound O=C1CCC(N2C(=O)c3ccc(N4CCN(CCCS(=O)(=O)N5CCN(c6cccc(-c7cnc8[nH]cc(CC(F)F)c8c7Cl)c6)C(=O)C5)CC4)cc3C2=O)C(=O)N1 (stereo not drawn) [Example 106] , what IC50 is on record?
Output line: 300 to 3000 nM

Input line: For the compound O=C1CCC(N2Cc3cc(C4CCN(CCCN5CCN(c6cccc(-c7cnc8[nH]cc(C9CC9)c8c7Cl)n6)C(=O)C5)CC4)ccc3C2=O)C(=O)N1 (stereo not drawn) [Example 82] , what IC50 is on record?
Output line: ≤ 300 nM

Input line: For the compound CCc1c[nH]c2ncc(-c3cccc(N4CCN(CCN5CCN(c6ccc7c(c6)C(=O)N(C6CCC(=O)NC6=O)C7=O)CC5)CC4=O)c3)c(Cl)c12 (stereo not drawn) [Example 28] , what IC50 is on record?
Output line: 300 to 3000 nM

---

- System: IL-2 production in primary mouse CD3+ T cells
- ASSAY NOTES: Cytokine measurement: IL-2 production in mouse CD3+ T cells (ELISA)
- Assay type: cell-based
- APPLIED CONDITIONS: T-cell, 1 uM compound, plate bound anti-CD3, 40 hrs, read-out: IL-2 production Fold change (1 uM)
For each of the compounds below, state its fold induction at 1 µM.

Input line: Item O=C1CCC(N2C(=O)c3cc(F)c(N4CCN(CCCS(=O)(=O)N5CCN(c6cccc(-c7cnc8[nH]cc(C9CC9)c8c7Cl)c6)C(=O)C5)CC4)cc3C2=O)C(=O)N1 (stereo not drawn) with IL-2 production in primary mouse CD3+ T cells - fold induction at 1 µM?
Output line: 1.7

Input line: Item O=C1CCC(N2C(=O)c3ccc(N4CCC(OCC(=O)N5CCN(c6cccc(-c7cnc8[nH]cc(CC(F)F)c8c7Cl)c6)C(=O)C5)CC4)cc3C2=O)C(=O)N1 (stereo not drawn) with IL-2 production in primary mouse CD3+ T cells - fold induction at 1 µM?
Output line: 1.8

Input line: Item O=C1CCC(N2Cc3cc(N4CCN(CCCS(=O)(=O)N5CCN(c6cccc(-c7cnc8[nH]cc(C9CC9)c8c7Cl)c6)C(=O)C5)CC4)ccc3C2=O)C(=O)N1 (stereo not drawn) with IL-2 production in primary mouse CD3+ T cells - fold induction at 1 µM?
Output line: 2.1

Input line: Item O=C1CCC(N2Cc3cc(N4CCN(CCCN5CCN(c6cccc(-c7cnc8[nH]cc(C9CC9)c8c7Cl)c6)C(=O)C5)CC4)ccc3C2=O)C(=O)N1 (stereo not drawn) with IL-2 production in primary mouse CD3+ T cells - fold induction at 1 µM?
Output line: 2.1

Input line: Item O=C1CCC(c2ccc(C3CCN(CCCS(=O)(=O)N4CCN(c5cccc(-c6cnc7[nH]cc(C8CC8)c7c6Cl)c5)C(=O)C4)CC3)cc2)C(=O)N1 (stereo not drawn) with IL-2 production in primary mouse CD3+ T cells - fold induction at 1 µM?
Output line: 2.9

Input line: Item CCc1c[nH]c2ncc(-c3cccc(N4CCN(CCCN5CCC(c6ccc7c(N8CCC(=O)NC8=O)cccc7c6)CC5)CC4=O)c3)c(Cl)c12 with IL-2 production in primary mouse CD3+ T cells - fold induction at 1 µM?
Output line: 2.5

---

- TEST SYSTEM: HPK1 protein (Homo sapiens, UniProt Q92918)
- Sequence (Q92918 1-346 limits assumed): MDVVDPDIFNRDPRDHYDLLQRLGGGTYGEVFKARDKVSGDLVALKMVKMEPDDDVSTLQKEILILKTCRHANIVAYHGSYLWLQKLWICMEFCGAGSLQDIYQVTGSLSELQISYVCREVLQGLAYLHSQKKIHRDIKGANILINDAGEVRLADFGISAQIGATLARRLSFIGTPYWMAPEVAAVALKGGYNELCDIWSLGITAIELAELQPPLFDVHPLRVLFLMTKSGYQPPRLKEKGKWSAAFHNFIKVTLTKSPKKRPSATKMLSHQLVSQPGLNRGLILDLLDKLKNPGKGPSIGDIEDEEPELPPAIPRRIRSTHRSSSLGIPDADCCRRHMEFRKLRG
QUANTITY MEASURED: IC50

Input line: For the compound O=C1CCC(N2C(=O)c3cc(F)c(N4CCC(OCCCN5CCN(c6cccc(-c7cnc8[nH]cc(C9CC9)c8c7Cl)c6)C(=O)C5)CC4)cc3C2=O)C(=O)N1 (stereo not drawn) , what IC50 is on record?
Output line: 10 to 100 nM

Input line: For the compound CCc1c[nH]c2ncc(-c3cccc(N4CCN(C(=O)CCN5CCN(C(=O)c6ccc(C)c(N7CCC(=O)NC7=O)c6)CC5)CC4=O)c3)c(Cl)c12 , what IC50 is on record?
Output line: ≤ 10 nM

Input line: For the compound CCc1c[nH]c2ncc(-c3cccc(N4CCN(C(=O)CCCOc5ccc6c(c5)C(=O)N(C5CCC(=O)NC5=O)C6)CC4=O)c3)c(Cl)c12 (stereo not drawn) , what IC50 is on record?
Output line: 10 to 100 nM

Input line: For the compound O=C1CCC(N2C(=O)c3ccc(N4CCN(CCCS(=O)(=O)N5CCN(c6cccc(-c7cnc8[nH]cc(CC(F)F)c8c7Cl)c6)C(=O)C5)CC4)cc3C2=O)C(=O)N1 (stereo not drawn) , what IC50 is on record?
Output line: ≤ 10 nM

Input line: For the compound CCc1c[nH]c2ncc(-c3cccc(N4CCN(C(=O)COC5CN(c6cccc7c6C(=O)N(C6CCC(=O)NC6=O)C7=O)C5)CC4=O)c3)c(Cl)c12 (stereo not drawn) , what IC50 is on record?
Output line: 10 to 100 nM

Input line: For the compound O=C1CCC(N2C(=O)c3cc(F)c(N4CCC5(CC4)CN(CCN4CCN(c6cccc(-c7cnc8[nH]cc(C9CC9)c8c7Cl)c6)C(=O)C4)C5)cc3C2=O)C(=O)N1 (stereo not drawn) , what IC50 is on record?
Output line: 10 to 100 nM
